Measurement target: T1, human pro-myostatin (human, UniProt O14793 24-375, biotinylated (in the SPR assay))
T1 construct: Disulfide-linked homodimer; also called proGDF8 (human)
Measurement protocol: Fab KD, summary Table 11; method and antigen not stated there
Test readout: pKd
pKd field: float, defined as -log10 of concentration (mol/L).

Please review the following examples before continuing.
Binder	pKd
Ab132 Fab (Fab, V domains shown, Fab of Ab132) VH: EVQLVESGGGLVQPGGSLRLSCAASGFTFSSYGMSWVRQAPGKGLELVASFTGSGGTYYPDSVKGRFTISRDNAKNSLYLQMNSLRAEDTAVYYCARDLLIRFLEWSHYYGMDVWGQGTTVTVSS VL: DIVMTQSPLSLPVTPGEPASISCRSSQSLLHSSGHNFLHWYLQKPGQSPQLLIYEVSNRVSGVPDRFSGSGSGTDFTLKISRVEAEDVGVYYCQQQTQYPPTFGGGTKVEIK	7.21
Ab131 Fab (Fab, V domains shown, Fab of Ab131) VH: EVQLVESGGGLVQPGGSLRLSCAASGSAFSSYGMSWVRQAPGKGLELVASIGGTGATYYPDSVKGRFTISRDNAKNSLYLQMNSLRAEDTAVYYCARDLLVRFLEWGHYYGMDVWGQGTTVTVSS VL: DIVMTQSPLSLPVTPGEPASISCRSSQSLLHSSGYNFLHWYLQKPGQSPQLLIYAASSRAPGIPDRFSGSGSGTDFTLKISRVEAEDVGVYYCQHGGQGPTFGGGTKVEIK	7.76
Ab123 Fab (Fab, V domains shown, Fab of Ab123; also called Ab123 Fab fragment) VH: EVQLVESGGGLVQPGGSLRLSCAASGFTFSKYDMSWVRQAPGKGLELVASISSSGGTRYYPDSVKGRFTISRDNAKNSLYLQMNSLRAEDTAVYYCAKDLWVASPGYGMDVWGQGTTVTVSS VL: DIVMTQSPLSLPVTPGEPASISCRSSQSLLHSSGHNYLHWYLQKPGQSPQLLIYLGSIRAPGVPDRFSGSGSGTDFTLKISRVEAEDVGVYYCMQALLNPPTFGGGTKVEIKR	8.26

May I ask what pKd has been recorded for Ab102 Fab (Fab, V domains shown) VH: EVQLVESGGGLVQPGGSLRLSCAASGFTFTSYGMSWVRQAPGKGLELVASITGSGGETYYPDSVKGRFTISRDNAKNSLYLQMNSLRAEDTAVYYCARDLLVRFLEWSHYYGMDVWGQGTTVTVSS VL: DIVMTQSPLSLPVTPGEPASISCRSSQSLLHSSGHNFLHWYLQKPGQSPQLLIYETSNRAPGIPDRFSGSGSGTDFTLKISRVEAEDVGVYYCMQATQFPRPFGGGTKVEIK ?
7.35

Consider the binder shown here: Ab141 Fab (Fab, V domains shown, Fab of Ab141) VH: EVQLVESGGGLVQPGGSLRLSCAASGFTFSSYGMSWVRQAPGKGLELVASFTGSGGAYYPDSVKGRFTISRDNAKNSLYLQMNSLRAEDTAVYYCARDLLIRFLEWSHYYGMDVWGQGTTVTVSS VL: DIVMTQSPLSLPVTPGEPASISCRSSQSLLHSSGHNFLHWYLQKPGQSPQLLIYEVSNRVSGVPDRFSGSGSGTDFTLKISRVEAEDVGVYYCMQQTQYPGTFGGGTKVEIK What is its recorded pKd?
7.72

# pKd lookup, item Ab105 Fab (Fab, V domains shown, Fab of Ab105) VH: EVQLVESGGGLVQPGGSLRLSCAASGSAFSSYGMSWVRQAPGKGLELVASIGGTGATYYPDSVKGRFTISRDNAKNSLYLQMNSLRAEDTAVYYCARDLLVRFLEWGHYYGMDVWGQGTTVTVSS VL: DIVMTQSPLSLPVTPGEPASISCRSSQSLLHSSGYNFLHWYLQKPGQSPQLLIYAASSRAPGIPDRFSGSGSGTDFTLKISRVEAEDVGVYYCMHGGQGPTFGGGTKVEIK
7.66
